These entries and their values trace back to paper PMC7870626.

- System: MRC complex (cI, cII or cIII)
- Experimental Protocol: HepG2-based MRC complex assay in permeabilized cells (earlier study)
- Type: cell-based
- Assay Setup: NeuriTox neurite EC25 relative to complex assay EC25 in permeabilized cells; respirometric data from HepG2-based assays ref van der Stel et al. 2020
Measurement Kind: Ratios of EC25 KE4/KE1 complex assay
Form field (numeric): enter value without unit.

Examples with answers:
CCCCCC[C@H]1C(=O)O[C@H](C)[C@H](NC(=O)c2cccc(NC=O)c2O)C(=O)O[C@@H](C)[C@@H]1OC(=O)CC(C)C [Antimycin A]; 1580
Cc1nc(C(F)(F)F)c(C(=O)Nc2c(Br)cc(OC(F)(F)F)cc2Br)s1 [Thifluzamide]; 2.5
CCc1nn(C)c(C(=O)NCc2ccc(C(C)(C)C)cc2)c1Cl; 1000

Given item COc1cc2c(cc1OC)[C@@H]1C(=O)c3ccc4c(c3O[C@@H]1CO2)C=CC(C)(C)O4 , the value recorded as its Ratios of EC25 KE4/KE1 complex assay is 250

For reference, reported Ratios of EC25 KE4/KE1 complex assay for CO/C=C(/C(=O)OC)c1ccccc1Oc1cc(Oc2ccccc2C#N)ncn1 stands at 4.0

# molecule COC(=O)N(OC)c1ccccc1COc1ccn(-c2ccc(Cl)cc2)n1 ; its Ratios of EC25 KE4/KE1 complex assay = 400
